Data origin: ChEMBL document CHEMBL1124364

# Tested on: Salmonella
# assaySummary: Minimum inhibitory concentration against Salmonella (X514)
# Assay type: functional
# measurementConditions: Salmonella; read-out: MIC
Let's look at some compounds and their measured MIC.
All answers are understood in µg/mL, so give the number only.

# example entries with known answers
CO/N=C(/C(=O)N[C@@H]1C(=O)N2C(C(=O)O)=C(S(=O)(=O)C(C)C)CC[C@H]12)c1csc(N)n1 :: 0.06
CO/N=C(\C(=O)N[C@@H]1C(=O)N2C(C(=O)O)=C(COC(C)=O)CS[C@H]12)c1csc(N)n1 :: 0.03
CO/N=C(/C(=O)N[C@@H]1C(=O)N2C(C(=O)O)=C(S(=O)(=O)c3cccs3)CC[C@H]12)c1csc(N)n1 :: 0.5

Turning to the following compound.
Answer with the recorded MIC for the compound listed here: CCCS(=O)(=O)C1=C(C(=O)O)N2C(=O)[C@@H](NC(=O)/C(=N/OC)c3csc(N)n3)[C@H]2CC1 0.125

====

# Test system: Klebsiella
# assaySummary: Minimum inhibitory concentration against Klebsiella (X26)
# Format: functional
# measurementConditions: Klebsiella; read-out: MIC
Let's look at some compounds and their measured log10(MIC).
Log scale reminder: MIC in µg/mL, then log10 taken.

# example entries with known answers
CO/N=C(/C(=O)N[C@@H]1C(=O)N2C(C(=O)O)=C(S(=O)(=O)C(C)C)CC[C@H]12)c1csc(N)n1 :: -0.90
CO/N=C(/C(=O)N[C@@H]1C(=O)N2C(C(=O)O)=C(S(=O)(=O)c3c(C)noc3C)CC[C@H]12)c1csc(N)n1 :: 0.00
CO/N=C(/C(=O)N[C@@H]1C(=O)N2C(C(=O)O)=C(S(=O)(=O)c3cccnc3)CC[C@H]12)c1csc(N)n1 :: 0.30
CCS(=O)(=O)C1=C(C(=O)O)N2C(=O)[C@@H](NC(=O)/C(=N/OC)c3csc(N)n3)[C@H]2CC1 :: -1.22
CO/N=C(/C(=O)N[C@@H]1C(=O)N2C(C(=O)O)=C(S(=O)(=O)c3cccs3)CC[C@H]12)c1csc(N)n1 :: 0.30
CO/N=C(/C(=O)N[C@@H]1C(=O)N2C(C(=O)O)=C(S(C)(=O)=O)CC[C@H]12)c1csc(N)n1 :: -1.22

Fetch value of log10(MIC) on Klebsiella for CCCS(=O)(=O)C1=C(C(=O)O)N2C(=O)[C@@H](NC(=O)/C(=N/OC)c3csc(N)n3)[C@H]2CC1 . -0.90

Fetch value of log10(MIC) on Klebsiella for CO/N=C(\C(=O)N[C@@H]1C(=O)N2C(C(=O)O)=C(COC(C)=O)CS[C@H]12)c1csc(N)n1 [CEFOTAXIME] . -2.10

====

# Tested on: Pseudomonas aeruginosa
# assaySummary: Minimum inhibitory concentration against Pseudomonas aeruginosa (X528)
# Assay type: functional
# measurementConditions: Pseudomonas aeruginosa; read-out: MIC
Let's look at some compounds and their measured MIC.

CS(=O)(=O)C1=C(C(=O)O)N2C(=O)[C@@H](NC(=O)COc3ccccc3)[C@H]2CC1 (stereo in doubt; 7) :: > 128 µg/mL
CO/N=C(/C(=O)N[C@@H]1C(=O)N2C(C(=O)O)=C(S(=O)(=O)C3CC3)CC[C@H]12)c1csc(N)n1 :: > 128 µg/mL

Answer with the recorded MIC for the compound listed here: CCS(=O)(=O)C1=C(C(=O)O)N2C(=O)[C@@H](NC(=O)/C(=N/OC)c3csc(N)n3)[C@H]2CC1 > 128 µg/mL

Answer with the recorded MIC for the compound listed here: CO/N=C(\C(=O)N[C@@H]1C(=O)N2C(C(=O)O)=C(COC(C)=O)CS[C@H]12)c1csc(N)n1 [CEFOTAXIME] 32 µg/mL
